- Tested on: TGFβ signal
- TEST PROTOCOL: TGFβ signal inhibitory activity, (SBE)4-Luc reporter in A549 cells (Test Examples 1A and 1B)
- Assay type: cell-based, human
- STUDY CONDITIONS: Homo sapiens, A549; 3 µM; compounds of Reference Examples (Test Example 1B); read-out: TGFβ inhibition rate, %
- Description: Test Example 1A: TGFβ signal inhibitory activity (in vitro test) The compounds according to the present invention was evaluated for TGFβ signal inhibitory activity according to the method described in J. Boil .Chem., 273, 21145-21152 (1998). […] After the culture, the luciferase activity of the cells were measured by chemiluminescence (Steady Glo (trademark) luciferase assay system, available from Promega). […]
OBSERVABLE: inhibition at 3 µM
Please make sure the unit comes right after the number.

Below: 5 molecules and their reported inhibition at 3 µM.
COc1cc2c(Oc3cc(C)c(C)nc3-c3nc(C)c(C)s3)ccnc2cc1O [Compound r455]: 76%
COc1cc2nccc(Oc3ccc(C)cc3-c3cccnc3)c2cc1OC [r168]: 22%
COc1cc2c(Oc3cc4ccccc4nc3C)ccnc2cc1OCCCN1CCOCC1 [Compound r379]: 100%
COc1cc2nccc(Oc3ccc(C)nc3-c3cccc(C)n3)c2cc1OC [Compound r264]: 88%
COc1cc2nccc(Oc3ccc4oc(=O)cc(C)c4c3)c2cc1OC [r306]: 20%

input: Dear colleague, I am looking for the recorded inhibition at 3 µM of the following molecule: COc1cc2c(Oc3cc4ccccc4nc3C)ccnc2cc1OCCCNC(=N)N [Compound r377]
output: 93%

input: Dear colleague, I am looking for the recorded inhibition at 3 µM of the following molecule: COc1cc2c(Oc3ccc(C)nc3-c3nccs3)ccnc2cc1O [Compound r329]
output: 100%

input: Dear colleague, I am looking for the recorded inhibition at 3 µM of the following molecule: COc1cc2c(Oc3ccc(C)nc3-c3nccs3)ccnc2cc1OCc1ccccc1 [Compound r328]
output: 100%

input: Dear colleague, I am looking for the recorded inhibition at 3 µM of the following molecule: COc1cc2c(Oc3cc(C)c(C)nc3-c3cccc(C)n3)ccnc2cc1OCC(CO)CO [Compound r448]
output: 70%

input: Dear colleague, I am looking for the recorded inhibition at 3 µM of the following molecule: COc1cc2c(Oc3cc4ccccc4nc3C)ccnc2cc1OCCN1CCC(C(N)=O)CC1 [Compound r362]
output: 100%

input: Dear colleague, I am looking for the recorded inhibition at 3 µM of the following molecule: COc1cc2c(Oc3cc4cccnc4nc3C)ccnc2cc1OCCCl [Compound r398]
output: 78%

input: Dear colleague, I am looking for the recorded inhibition at 3 µM of the following molecule: COc1cc2nccc(Oc3ccc(F)nc3)c2cc1OC [r205]
output: 26%

input: Dear colleague, I am looking for the recorded inhibition at 3 µM of the following molecule: COc1cc2c(Oc3cc4ccccc4nc3C)ccnc2cc1OCCN1CCCCC1 [Compound r358]
output: 100%

input: Dear colleague, I am looking for the recorded inhibition at 3 µM of the following molecule: COc1cc2nccc(Oc3ccc(C)cc3C(=O)c3ccc(OCCCl)cc3)c2cc1OC [Compound r189]
output: 86%
